Source listed as patent US20100160286A1.

- tested.target: recombinant human pancreatic GLK (Homo sapiens, UniProt P35557)
- Sequence (P35557 whole entry): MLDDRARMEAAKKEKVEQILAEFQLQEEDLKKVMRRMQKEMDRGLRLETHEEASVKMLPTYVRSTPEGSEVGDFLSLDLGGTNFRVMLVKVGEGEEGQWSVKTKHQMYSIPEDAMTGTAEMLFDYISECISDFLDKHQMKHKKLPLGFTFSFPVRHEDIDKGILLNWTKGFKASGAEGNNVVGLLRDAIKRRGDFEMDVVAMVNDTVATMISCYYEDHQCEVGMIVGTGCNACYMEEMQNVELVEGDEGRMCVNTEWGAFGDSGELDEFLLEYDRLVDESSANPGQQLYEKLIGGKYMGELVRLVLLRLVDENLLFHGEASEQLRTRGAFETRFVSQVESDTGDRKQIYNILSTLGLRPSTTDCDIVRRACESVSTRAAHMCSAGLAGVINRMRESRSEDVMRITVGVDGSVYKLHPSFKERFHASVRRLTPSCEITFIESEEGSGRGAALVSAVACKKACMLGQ
- experimental.details: biochemical
pEC50: −log10 of the molar value.
measured.attribute: pEC50

> print(dat)
                         compound.structure                             tested.target  measured.attribute  observed.result
1  C#C[C@H](C)Oc1cc(Oc2ccc(C(=O)N3CCC3)cc2)cc(C(=O)Nc2ccn(C)n2)c1  recombinant human pancreatic GLK (Homo sapiens, UniProt P35557)               pEC50             7.22
